# Test system: Plasmodium berghei
# EXPERIMENTAL DETAILS: Luciferase/luciferin-expressing antifolate-resistant parasites were used to infect a culture of HepG2 cells that were pre-incubated with compounds. Infected hepatocytes emit light due to the luciferase reaction. Assay results are presented as the percent inhibition of light emission compared to control. […]
# Assay type: functional
# CONDITIONS: sporozoite, HEPG2TOX_HILL_SLOPE 3.54, HEPG2TOX_R_SQUARED 0.932, PBLUC_HILL_SLOPE 9.57, PBLUC_R_SQUARED 0.198, read-out: LUCIFERASE INFECTION ASSAY - IC50
MEASUREMENT TYPE: pIC50
// scale note: pIC50 = -log10(conc_M); give the bare number

In: Missing value: pIC50, Plasmodium berghei, entry "Cc1cc(C(=O)CN(Cc2ccco2)S(=O)(=O)/C=C/c2ccccc2)c(C)n1C" . Fill in?
Out: 5.05

###

# System: Plasmodium berghei
# EXPERIMENTAL DETAILS: Luciferase/luciferin-expressing antifolate-resistant parasites were used to infect a culture of HepG2 cells that were pre-incubated with compounds. Infected hepatocytes emit light due to the luciferase reaction. Assay results are presented as the percent inhibition of light emission compared to control. […]
# Format: functional
# CONDITIONS: sporozoite, HEPG2TOX_HILL_SLOPE 0.173, HEPG2TOX_R_SQUARED 0.325, read-out: LUCIFERASE INFECTION ASSAY - IC50
MEASUREMENT TYPE: IC50

In: Please look up its IC50: "Fc1ccc(-c2ccc3ncc(-c4cccnc4)n3n2)cc1"
Out: > 3.33 µM

###

# System: Plasmodium berghei
# EXPERIMENTAL DETAILS: Luciferase/luciferin-expressing antifolate-resistant parasites were used to infect a culture of HepG2 cells that were pre-incubated with compounds. Infected hepatocytes emit light due to the luciferase reaction. Assay results are presented as the percent inhibition of light emission compared to control. […]
# Type: functional
# CONDITIONS: sporozoite, FFLUC_HILL_SLOPE 1.34, FFLUC_R_SQUARED 0.714, read-out: LUCIFERASE INFECTION ASSAY - IC50
pIC50: −log10 of the molar value.
MEASUREMENT TYPE: pIC50

In: Look up pIC50 for this compound: "CSc1sc(C(=O)NNC(=O)Nc2ccccc2)c2c1C=CCC2"
Out: < 5.04

###

# Tested on: Plasmodium berghei
# EXPERIMENTAL DETAILS: Luciferase/luciferin-expressing antifolate-resistant parasites were used to infect a culture of HepG2 cells that were pre-incubated with compounds. Infected hepatocytes emit light due to the luciferase reaction. Assay results are presented as the percent inhibition of light emission compared to control. […]
# Format: functional
# CONDITIONS: sporozoite, HEPG2TOX_HILL_SLOPE 4.49, HEPG2TOX_R_SQUARED 0.873, PBLUC_HILL_SLOPE 2.27, PBLUC_R_SQUARED 0.353, read-out: LUCIFERASE INFECTION ASSAY - IC50
MEASUREMENT TYPE: IC50 (µM)
Hi! Could you send only the number? It should be in µM, unit omitted.

In: If you can, please state the reported IC50 value of "O=C(CNc1cccc(S(=O)(=O)N2CCCCC2)c1)NC(=O)NC1CCCC1" .
Out: 7.49

###

# Tested on: Plasmodium berghei
# EXPERIMENTAL DETAILS: Luciferase/luciferin-expressing antifolate-resistant parasites were used to infect a culture of HepG2 cells that were pre-incubated with compounds. Infected hepatocytes emit light due to the luciferase reaction. Assay results are presented as the percent inhibition of light emission compared to control. […]
# Format: functional
# CONDITIONS: sporozoite, PBLUC_HILL_SLOPE 5.33, PBLUC_R_SQUARED 0.256, read-out: LUCIFERASE INFECTION ASSAY - IC50
MEASUREMENT TYPE: IC50 (µM)
Report as a plain number; the unit µM is understood.

In: Need IC50 of Cc1cc(C)n(-c2nc(C)c(Br)c(NC(C)c3ccccc3)n2)n1 (stereo unspecified) , thanks.
Out: 5.95

###

# System: Plasmodium berghei
# EXPERIMENTAL DETAILS: Luciferase/luciferin-expressing antifolate-resistant parasites were used to infect a culture of HepG2 cells that were pre-incubated with compounds. Infected hepatocytes emit light due to the luciferase reaction. Assay results are presented as the percent inhibition of light emission compared to control. […]
# Type: functional
# CONDITIONS: sporozoite, PBLUC_HILL_SLOPE 2.42, PBLUC_R_SQUARED 0.273, read-out: LUCIFERASE INFECTION ASSAY - IC50
MEASUREMENT TYPE: IC50

In: What IC50 value was documented for this compound, "Cc1onc(-c2ccccc2Cl)c1C(=O)ON=C1C2CC3CC(C2)CC1C3" ?
Out: 5.03 µM

###

# System: Plasmodium berghei
# EXPERIMENTAL DETAILS: Luciferase/luciferin-expressing antifolate-resistant parasites were used to infect a culture of HepG2 cells that were pre-incubated with compounds. Infected hepatocytes emit light due to the luciferase reaction. Assay results are presented as the percent inhibition of light emission compared to control. […]
# Assay type: functional
# CONDITIONS: sporozoite, PBLUC_HILL_SLOPE 10.9, PBLUC_R_SQUARED 0.683, read-out: LUCIFERASE INFECTION ASSAY - IC50
MEASUREMENT TYPE: IC50 (µM)
Give the number; µM is assumed, so skip it.

In: Requested read-out: IC50. Entry: "C/C(=N\Nc1cccc([N+](=O)[O-])c1)c1cc2ccccc2o1"
Out: 3.34

###

# Tested on: Plasmodium berghei
# EXPERIMENTAL DETAILS: Luciferase/luciferin-expressing antifolate-resistant parasites were used to infect a culture of HepG2 cells that were pre-incubated with compounds. Infected hepatocytes emit light due to the luciferase reaction. Assay results are presented as the percent inhibition of light emission compared to control. […]
# Assay type: functional
# CONDITIONS: sporozoite, PBLUC_HILL_SLOPE 2.12, PBLUC_R_SQUARED 0.351, read-out: LUCIFERASE INFECTION ASSAY - IC50
MEASUREMENT TYPE: IC50 (nM)
Write the answer as a number in nM, unit excluded.

In: Item: "CC(=O)c1c(C)[nH]c(-c2csc(-c3ccc(C)cc3C)n2)c1C" Test system: Plasmodium berghei Read-out: IC50 Value: ?
Out: 2120

###

# System: Plasmodium berghei
# EXPERIMENTAL DETAILS: Luciferase/luciferin-expressing antifolate-resistant parasites were used to infect a culture of HepG2 cells that were pre-incubated with compounds. Infected hepatocytes emit light due to the luciferase reaction. Assay results are presented as the percent inhibition of light emission compared to control. […]
# Format: functional
# CONDITIONS: sporozoite, HEPG2TOX_HILL_SLOPE 2.9, HEPG2TOX_R_SQUARED 0.919, read-out: LUCIFERASE INFECTION ASSAY - IC50
MEASUREMENT TYPE: IC50

In: Observed IC50 on Plasmodium berghei for "O=C(Nc1nc(CN2CCCC2)cs1)c1ccc(-c2ccccc2)cc1" , please.
Out: > 10 µM

###

# Test system: Plasmodium berghei
# EXPERIMENTAL DETAILS: Luciferase/luciferin-expressing antifolate-resistant parasites were used to infect a culture of HepG2 cells that were pre-incubated with compounds. Infected hepatocytes emit light due to the luciferase reaction. Assay results are presented as the percent inhibition of light emission compared to control. […]
# Assay type: functional
# CONDITIONS: sporozoite, PBLUC_HILL_SLOPE 8, PBLUC_R_SQUARED 0.651, read-out: LUCIFERASE INFECTION ASSAY - IC50
MEASUREMENT TYPE: pIC50
Formally, pIC50 is defined as -log10 of the concentration c, with c in mol/L.

In: What value of pIC50 has been reported for the following compound? "Fc1ccc(-c2nc(CSc3nc(NC4CC4)c4ccccc4n3)cs2)cc1"
Out: 5.43

###

# Test system: Plasmodium berghei
# EXPERIMENTAL DETAILS: Luciferase/luciferin-expressing antifolate-resistant parasites were used to infect a culture of HepG2 cells that were pre-incubated with compounds. Infected hepatocytes emit light due to the luciferase reaction. Assay results are presented as the percent inhibition of light emission compared to control. […]
# Assay type: functional
# CONDITIONS: sporozoite, PBLUC_HILL_SLOPE 2.19, PBLUC_R_SQUARED 0.0283, read-out: LUCIFERASE INFECTION ASSAY - IC50
MEASUREMENT TYPE: IC50 (µM)
Express the result in µM but write the number alone.

In: I am curious: what IC50 value has been reported for CCCCC1(Cc2ccccc2)C(=O)c2cccc3c4ccccc4n(c23)C1=O (stereo unspecified) ?
Out: 8.01

###

# Tested on: Plasmodium berghei
# EXPERIMENTAL DETAILS: Luciferase/luciferin-expressing antifolate-resistant parasites were used to infect a culture of HepG2 cells that were pre-incubated with compounds. Infected hepatocytes emit light due to the luciferase reaction. Assay results are presented as the percent inhibition of light emission compared to control. […]
# Assay type: functional
# CONDITIONS: sporozoite, HEPG2TOX_HILL_SLOPE 1.79, HEPG2TOX_R_SQUARED 0.954, PBLUC_HILL_SLOPE 8.39, PBLUC_R_SQUARED 0.134, read-out: LUCIFERASE INFECTION ASSAY - IC50
MEASUREMENT TYPE: pIC50
Worth noting: pIC50 values are minus log10 of concentrations stated in mol/L.

In: Recorded pIC50 of "CN1C(=O)N(CCCc2ccncc2)C(=O)C12CCN(Cc1cc3ccccc3[nH]1)CC2" , please.
Out: 5.17

Provenance of the data: ChEMBL document CHEMBL4483862
